Attribution: patent US20260035382A1

Assay: In vivo pharmacokinetic experiment, intravenous administration
Details: mouse, 2 mg/kg, CD-1 female mice, 2 mpk, whole blood, read-out: Whole blood AUClast
Experimental: CD-1 female mice aged 6 to 8 weeks were intravenously administered at a dose of 2 mg/kg. The mice were fasted for at least 12 h before the administration and given food after the administration, and they were given ad libitum access to water during the experiment. […] The plasma concentration was processed using a non-compartmental model of Phoenix WinNonlin™ version 8.3 (Certara) pharmacokinetic software, and the pharmacokinetic parameters were calculated using a linear-log trapezoidal method.
ENDPOINT: AUC(0-t) (ng·h/mL)

[
  {
    "MOLECULE": "NS(=O)(=O)OC[C@H]1C[C@@H](Nc2ncncc2C(=O)c2cc3c(s2)CCC[C@]32NCCc3ccc(Cl)cc32)C[C@@H]1O [Compound 6]",
    "EXPERIMENTAL_RESULT": 34400
  },
  {
    "MOLECULE": "NS(=O)(=O)OC[C@H]1C[C@@H](Nc2ncncc2C(=O)c2cc3c(s2)COC[C@]32NCCc3ccc(Cl)cc32)C[C@@H]1O [Compound 21]",
    "EXPERIMENTAL_RESULT": 67900
  },
  {
    "MOLECULE": "NS(=O)(=O)OC[C@H]1C[C@@H](Nc2ncncc2C(=O)c2cc3c(s2)CCC[C@]32NCCc3ccc(F)cc32)C[C@@H]1O [Compound 9]",
    "EXPERIMENTAL_RESULT": 19000
  }
]

* * *

Molecular target: SAE (Homo sapiens (Human), UniProt Q9UBT2)
Sequence (Q9UBT2 whole entry): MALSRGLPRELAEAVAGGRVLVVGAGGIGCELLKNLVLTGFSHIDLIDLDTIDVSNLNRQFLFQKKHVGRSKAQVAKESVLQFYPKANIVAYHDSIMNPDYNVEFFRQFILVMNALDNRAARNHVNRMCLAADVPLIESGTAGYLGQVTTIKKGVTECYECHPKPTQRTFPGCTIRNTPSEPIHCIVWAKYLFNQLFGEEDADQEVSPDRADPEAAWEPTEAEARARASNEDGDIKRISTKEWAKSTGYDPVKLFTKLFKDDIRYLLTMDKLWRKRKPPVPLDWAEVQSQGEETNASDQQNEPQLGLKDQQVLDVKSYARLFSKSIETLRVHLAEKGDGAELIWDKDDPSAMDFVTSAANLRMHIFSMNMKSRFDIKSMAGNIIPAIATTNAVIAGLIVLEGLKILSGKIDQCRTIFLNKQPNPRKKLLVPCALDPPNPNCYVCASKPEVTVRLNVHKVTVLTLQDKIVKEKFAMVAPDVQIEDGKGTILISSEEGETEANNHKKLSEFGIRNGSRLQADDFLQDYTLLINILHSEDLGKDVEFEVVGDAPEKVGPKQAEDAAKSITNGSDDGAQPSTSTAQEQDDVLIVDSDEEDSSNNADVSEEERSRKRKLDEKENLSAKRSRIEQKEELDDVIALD
Sequence (Q9UBE0 whole entry partner): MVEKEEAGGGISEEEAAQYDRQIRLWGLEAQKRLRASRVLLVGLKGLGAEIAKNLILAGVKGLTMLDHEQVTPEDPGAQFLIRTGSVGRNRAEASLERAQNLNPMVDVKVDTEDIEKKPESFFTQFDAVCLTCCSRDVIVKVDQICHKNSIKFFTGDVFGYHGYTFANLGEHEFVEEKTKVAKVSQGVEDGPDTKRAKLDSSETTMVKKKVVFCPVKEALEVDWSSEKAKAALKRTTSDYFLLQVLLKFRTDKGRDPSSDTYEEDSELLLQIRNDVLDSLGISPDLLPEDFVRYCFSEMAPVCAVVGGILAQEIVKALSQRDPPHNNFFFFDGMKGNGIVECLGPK
Assay: In vitro inhibitory activity assay against SAE (SUMO-2/3 immunofluorescence in HCT116 cells)
Format: cell-based
Settings: 6 h incubation, class symbols, read-out: SUMO IF IC50
pIC50: −log10 of the molar value.
ENDPOINT: pIC50

[
  {
    "MOLECULE": "NS(=O)(=O)OC[C@H]1C[C@@H](Nc2ncncc2C(=O)c2cc3c(s2)CN(CC(F)(F)F)CC32NCCc3ccc(Cl)cc32)C[C@@H]1O (stereo partly drawn)",
    "EXPERIMENTAL_RESULT": "≥ 7.30"
  },
  {
    "MOLECULE": "NS(=O)(=O)OC[C@H]1C[C@@H](Nc2ncncc2C(=O)c2cc3c(s2)CSC[C@]32NCCc3ccccc32)C[C@@H]1O",
    "EXPERIMENTAL_RESULT": "6.70 to 7.30"
  },
  {
    "MOLECULE": "NS(=O)(=O)OC[C@H]1C[C@@H](Nc2ncncc2C(=O)c2cc3c(s2)COCC32NCCc3ccc(Cl)cc32)C[C@@H]1O (stereo partly drawn)",
    "EXPERIMENTAL_RESULT": "6.70 to 7.30"
  },
  {
    "MOLECULE": "COc1cc2c(cc1Cl)[C@@]1(CCc3sc(C(=O)c4cncnc4N[C@@H]4C[C@H](COS(N)(=O)=O)[C@@H](O)C4)cc31)NCC2",
    "EXPERIMENTAL_RESULT": "6.70 to 7.30"
  },
  {
    "MOLECULE": "COc1ccc2c(c1)[C@]1(CCCc3sc(C(=O)c4cncnc4N[C@@H]4C[C@H](COS(N)(=O)=O)[C@@H](O)C4)cc31)NCC2",
    "EXPERIMENTAL_RESULT": "< 6.70"
  },
  {
    "MOLECULE": "N#Cc1ccc2c(c1)C1(CCc3sc(C(=O)c4cncnc4N[C@@H]4C[C@H](COS(N)(=O)=O)[C@@H](O)C4)cc31)OCC2 (stereo partly drawn)",
    "EXPERIMENTAL_RESULT": "6.70 to 7.30"
  }
]
